This section presents variants with their documented self-cleavage values.
B1: CPEB3 Ribozyme (parent)
chain: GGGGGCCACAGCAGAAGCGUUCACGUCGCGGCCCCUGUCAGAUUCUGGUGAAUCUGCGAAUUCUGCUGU

Variants of: B1
Assay: self-cleavage, relative activity (ratio to wild type); higher = more cleavage; co-transcriptional
I'd appreciate a reply containing only the number, no unit.

G19C U69G
0.231

Then this variant:
Name the recorded self-cleavage for A10U U38G .
0.154
